meta.source: PubChem BioAssay AID1963861

System: 885724-159-R-J1-PDC KRAS PDC multicell spheroid viability
Experiment: Anticancer human tumor 885724-159-R-J1-PDC patient-derived pancreatic adenocarcinoma cell line growth inhibition [KRAS2]
Settings: curve of first compound; second compound 1 µM
Text: Multicellular complex tumor spheroid response to RAS pathway inhibitors in combination with a targeted agents in patient-derived cell lines with oncogenic KRAS variants from multiple cancer types A high-throughput screen of multi-cell type tumor spheroids was designed to identify active combinations of targeted small molecules and KRAS pathway inhibitors. […] Compounds. […] If the clinical Cmax for an agent had not been determined, the highest concentration tested was 10 microM. […]
endpoint.label: IC50 (nM)
Only the number, expressed in nM, is required.

Worked cases, IC50 given:
[[record]]
compound = "COC(=O)c1ccc2c(C(=Nc3ccc(N(C)C(=O)CN4CCN(C)CC4)cc3)c3ccccc3)c(O)[nH]c2c1 + C=CC(=O)N1CCN(c2nc(OCC3CCCN3C)nc3c2CCN(c2cccc4cccc(C)c24)C3)CC1CC#N"
system = "885724-159-R-J1-PDC KRAS PDC multicell spheroid viability"
recorded_result = 1680

[[record]]
compound = "CC(C)n1nc(-c2ccc3oc(N)nc3c2)c2c(N)ncnc21 + C=CC(=O)N1CCN(c2nc(OCC3CCCN3C)nc3c2CCN(c2cccc4cccc(C)c24)C3)CC1CC#N"
system = "885724-159-R-J1-PDC KRAS PDC multicell spheroid viability"
recorded_result = 8.71


Now consider a different compound.
Which IC50 is reported for this compound? CC1(C)CCC(CN2CCN(c3ccc(C(=O)NS(=O)(=O)c4ccc(NCC5CCOCC5)c([N+](=O)[O-])c4)c(Oc4cnc5[nH]ccc5c4)c3)CC2)=C(c2ccc(Cl)cc2)C1 + COc1cc2nc(C)nc(NC(C)c3cc(N)cc(C(F)(F)F)c3)c2cc1OC1CCOC1
5010

----------
Tested on: 885724-159-R-J1-PDC KRAS PDC multicell spheroid viability
Experiment: Anticancer human tumor 885724-159-R-J1-PDC cell line growth inhibition [KRAS2];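 further: spheroids exposed to agents for 7 days before readout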
Details: second compound 10 µM; first compound 1 µM; stronger effect = lower value
Text: Multicellular complex tumor spheroid response to RAS pathway inhibitors in combination with a targeted agents in patient-derived cell lines with oncogenic KRAS variants from multiple cancer types A high-throughput screen of multi-cell type tumor spheroids was designed to identify active combinations of targeted small molecules and KRAS pathway inhibitors. […] Compounds. […] If the clinical Cmax for an agent had not been determined, the highest concentration tested was 10 microM. […]
So basically every entry gets a class from its viability, T/C, ranges being L = under 20%, M = from 20% up to 40%, H = 40% and over

Before answering, review these 4 worked examples.
[[record]]
compound = "O=C(c1cc(Cc2n[nH]c(=O)c3ccccc23)ccc1F)N1CCN(C(=O)C2CC2)CC1 + C=CC(=O)N1CCN(c2nc(=O)n(-c3c(C)ccnc3C(C)C)c3nc(-c4c(O)cccc4F)c(F)cc23)C(C)C1"
classification = "H"

[[record]]
compound = "CCNC(=O)CC1N=C(c2ccc(Cl)cc2)c2cc(OC)ccc2-n2c(C)nnc21 (stereo not given) + CC1OCC2(CCN(c3cnc(Sc4ccnc(N)c4Cl)c(N)n3)CC2)C1N"
classification = "M"

[[record]]
compound = "CC1COCCN1c1cc(-c2ccnn2C)c2ccnc(-c3ccn[nH]3)c2n1 (stereo not given) + COc1cc2nc(C)nc(NC(C)c3cc(N)cc(C(F)(F)F)c3)c2cc1OC1CCOC1"
classification = "H"

[[record]]
compound = "CC1(C)CCC(CN2CCN(c3ccc(C(=O)NS(=O)(=O)c4ccc(NCC5CCOCC5)c([N+](=O)[O-])c4)c(Oc4cnc5[nH]ccc5c4)c3)CC2)=C(c2ccc(Cl)cc2)C1 + COc1cc2nc(C)nc(NC(C)c3cc(N)cc(C(F)(F)F)c3)c2cc1OC1CCOC1"
classification = "M"


For the record CC(C)NCC(C(=O)N1CCN(c2ncnc3c2C(C)CC3O)CC1)c1ccc(Cl)cc1 (stereo not given) + COc1cc2nc(C)nc(NC(C)c3cc(N)cc(C(F)(F)F)c3)c2cc1OC1CCOC1 , report the class its viability, T/C corresponds to.
M

For the record COC(=O)c1ccc2c(C(=Nc3ccc(N(C)C(=O)CN4CCN(C)CC4)cc3)c3ccccc3)c(O)[nH]c2c1 + C=CC(=O)N1CCN(c2nc(=O)n(-c3c(C)ccnc3C(C)C)c3nc(-c4c(O)cccc4F)c(F)cc23)C(C)C1 , report the class its viability, T/C corresponds to.
H

For the record COc1cc(Nc2ncc3c(n2)-c2ccc(Cl)cc2C(c2c(F)cccc2OC)=NC3)ccc1C(=O)O + CNCc1ccccc1-c1csc(C(C)Nc2nc(C)nc3cc(OC)c(OC)cc23)c1 , report the class its viability, T/C corresponds to.
L

For the record CCNC(=O)CC1N=C(c2ccc(Cl)cc2)c2cc(OC)ccc2-n2c(C)nnc21 (stereo not given) + COc1cc2nc(C)nc(NC(C)c3cc(N)cc(C(F)(F)F)c3)c2cc1OC1CCOC1 , report the class its viability, T/C corresponds to.
L

For the record CC(=O)OC12COC1CC(O)C1(C)C(=O)C(O)C3=C(C)C(OC(=O)C(O)C(NC(=O)OC(C)(C)C)c4ccccc4)CC(O)(C(OC(=O)c4ccccc4)C21)C3(C)C (stereo not given) + COc1cc2nc(C)nc(NC(C)c3cc(N)cc(C(F)(F)F)c3)c2cc1OC1CCOC1 , report the class its viability, T/C corresponds to.
H

For the record CCN1CCN(Cc2ccc(Nc3ncc(F)c(-c4cc(F)c5nc(C)n(C(C)C)c5c4)n3)nc2)CC1 + CNCc1ccccc1-c1csc(C(C)Nc2nc(C)nc3cc(OC)c(OC)cc23)c1 , report the class its viability, T/C corresponds to.
L

----------
system: 885724-159-R-J1-PDC KRAS PDC multicell spheroid viability; experiment: Anticancer human tumor 885724-159-R-J1-PDC cell line growth inhibition [KRAS2]; conditions: second compound 0.316 µM; first compound 3.16 µM; stronger effect = lower value;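 further: spheroids exposed to agents for 7 days before readout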
endpoint.label: viability, T/C (%)
Only the number, expressed in %, is required.

Worked cases, viability, T/C given:
[[record]]
compound = "O=C(c1cc(Cc2n[nH]c(=O)c3ccccc23)ccc1F)N1CCN(C(=O)C2CC2)CC1 + C=CC(=O)N1CCN(c2nc(=O)n(-c3c(C)ccnc3C(C)C)c3nc(-c4c(O)cccc4F)c(F)cc23)C(C)C1"
recorded_result = 108

[[record]]
compound = "COC(=O)c1ccc2c(C(=Nc3ccc(N(C)C(=O)CN4CCN(C)CC4)cc3)c3ccccc3)c(O)[nH]c2c1 + C=CC(=O)N1CCN(c2nc(=O)n(-c3c(C)ccnc3C(C)C)c3nc(-c4c(O)cccc4F)c(F)cc23)C(C)C1"
recorded_result = 28.1

[[record]]
compound = "COc1cc2nccc(Oc3ccc(NC(=O)C4(C(=O)Nc5ccc(F)cc5)CC4)cc3)c2cc1OC + C=CC(=O)N1CCN(c2nc(OCC3CCCN3C)nc3c2CCN(c2cccc4cccc(C)c24)C3)CC1CC#N"
recorded_result = 79.7


Which viability, T/C is reported for this compound? CC1(C)CCC(CN2CCN(c3ccc(C(=O)NS(=O)(=O)c4ccc(NCC5CCOCC5)c([N+](=O)[O-])c4)c(Oc4cnc5[nH]ccc5c4)c3)CC2)=C(c2ccc(Cl)cc2)C1 + COc1cc2nc(C)nc(NC(C)c3cc(N)cc(C(F)(F)F)c3)c2cc1OC1CCOC1
79.5

Which viability, T/C is reported for this compound? CC(C)NCC(C(=O)N1CCN(c2ncnc3c2C(C)CC3O)CC1)c1ccc(Cl)cc1 (stereo not given) + CNCc1ccccc1-c1csc(C(C)Nc2nc(C)nc3cc(OC)c(OC)cc23)c1
78.2

----------
System: 885724-159-R-J1-PDC KRAS PDC multicell spheroid viability
Test: Anticancer human tumor 885724-159-R-J1-PDC cell line growth inhibition [KRAS2];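 further: spheroids exposed to agents for 7 days before readout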
Conditions: second compound 0.1 µM; first compound 0.01 µM; stronger effect = lower value
Text: Multicellular complex tumor spheroid response to RAS pathway inhibitors in combination with a targeted agents in patient-derived cell lines with oncogenic KRAS variants from multiple cancer types A high-throughput screen of multi-cell type tumor spheroids was designed to identify active combinations of targeted small molecules and KRAS pathway inhibitors. […] Compounds. […] If the clinical Cmax for an agent had not been determined, the highest concentration tested was 10 microM. […]
So basically every entry gets a class from its viability, T/C, ranges being band A: < 60%; band B: ≥ 60% and < 90%; band C: ≥ 90%

Before answering, review these 3 worked examples.
[[record]]
compound = "CC1COCCN1c1cc(-c2ccnn2C)c2ccnc(-c3ccn[nH]3)c2n1 (stereo not given) + COc1cc2nc(C)nc(NC(C)c3cc(N)cc(C(F)(F)F)c3)c2cc1OC1CCOC1"
system = "885724-159-R-J1-PDC KRAS PDC multicell spheroid viability"
classification = "band C"

[[record]]
compound = "CC(=O)Nc1cccc(-n2c(=O)n(C3CC3)c(=O)c3c(Nc4ccc(I)cc4F)n(C)c(=O)c(C)c32)c1 + C=CC(=O)N1CCN(c2nc(OCC3CCCN3C)nc3c2CCN(c2cccc4cccc(C)c24)C3)CC1CC#N"
system = "885724-159-R-J1-PDC KRAS PDC multicell spheroid viability"
classification = "band A"

[[record]]
compound = "CC(=O)Nc1cccc(-n2c(=O)n(C3CC3)c(=O)c3c(Nc4ccc(I)cc4F)n(C)c(=O)c(C)c32)c1 + CNCc1ccccc1-c1csc(C(C)Nc2nc(C)nc3cc(OC)c(OC)cc23)c1"
system = "885724-159-R-J1-PDC KRAS PDC multicell spheroid viability"
classification = "band A"


For the record CC(C)n1nc(-c2ccc3oc(N)nc3c2)c2c(N)ncnc21 + COc1cc2nc(C)nc(NC(C)c3cc(N)cc(C(F)(F)F)c3)c2cc1OC1CCOC1 , report the class its viability, T/C corresponds to.
band A

For the record Cn1ncnc1[C@H]1c2n[nH]c(=O)c3cc(F)cc(c23)N[C@@H]1c1ccc(F)cc1 + COc1cc2nc(C)nc(NC(C)c3cc(N)cc(C(F)(F)F)c3)c2cc1OC1CCOC1 , report the class its viability, T/C corresponds to.
band C

For the record CC(C)n1nc(-c2ccc3oc(N)nc3c2)c2c(N)ncnc21 + CC1OCC2(CCN(c3cnc(Sc4ccnc(N)c4Cl)c(N)n3)CC2)C1N , report the class its viability, T/C corresponds to.
band B

For the record CC(=O)OC12COC1CC(O)C1(C)C(=O)C(O)C3=C(C)C(OC(=O)C(O)C(NC(=O)OC(C)(C)C)c4ccccc4)CC(O)(C(OC(=O)c4ccccc4)C21)C3(C)C (stereo not given) + CNCc1ccccc1-c1csc(C(C)Nc2nc(C)nc3cc(OC)c(OC)cc23)c1 , report the class its viability, T/C corresponds to.
band B

For the record CC(=O)OC12COC1CC(O)C1(C)C(=O)C(O)C3=C(C)C(OC(=O)C(O)C(NC(=O)OC(C)(C)C)c4ccccc4)CC(O)(C(OC(=O)c4ccccc4)C21)C3(C)C (stereo not given) + CC1OCC2(CCN(c3cnc(Sc4ccnc(N)c4Cl)c(N)n3)CC2)C1N , report the class its viability, T/C corresponds to.
band C

For the record CC(=O)OC12COC1CC(O)C1(C)C(=O)C(O)C3=C(C)C(OC(=O)C(O)C(NC(=O)OC(C)(C)C)c4ccccc4)CC(O)(C(OC(=O)c4ccccc4)C21)C3(C)C (stereo not given) + COc1cc2nc(C)nc(NC(C)c3cc(N)cc(C(F)(F)F)c3)c2cc1OC1CCOC1 , report the class its viability, T/C corresponds to.
band C

For the record CCN1CCN(Cc2ccc(Nc3ncc(F)c(-c4cc(F)c5nc(C)n(C(C)C)c5c4)n3)nc2)CC1 + CC1OCC2(CCN(c3cnc(Sc4ccnc(N)c4Cl)c(N)n3)CC2)C1N , report the class its viability, T/C corresponds to.
band C
